# maps each entry to its self-cleavage
B1: LINE1-full (parent)
chain: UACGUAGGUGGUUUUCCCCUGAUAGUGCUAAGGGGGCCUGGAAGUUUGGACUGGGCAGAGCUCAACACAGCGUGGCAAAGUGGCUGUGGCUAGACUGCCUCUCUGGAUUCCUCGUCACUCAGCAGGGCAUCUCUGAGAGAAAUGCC

- Variants of: B1
- Experimental Protocol: self-cleavage, relative activity (ratio to wild type); higher = more cleavage; in vitro, sequencing; the parent is a self-cleaving ribozyme
Value Type: self-cleavage

INSERT INTO results (residue_sequence, value_type, endpoint_result) VALUES
  ('UACGUAGGUGGUUUUCCCCUGAUAGUGCUAAGGGGGCCUGGAAGUUUGGACUGGGCAGAGCUCAACACAGCGUGGCAAAGUAGCUGUGGCUAGACUGCCUCUCUGGAUUCCUCGUCACUCAGCAGGGCAACUCUGAGAGAAAUGCC', 'self-cleavage', 1.97),
  ('UACGUAGGUGGUUUUCCCCUGAUAGUGCUAAGGGGGCCUGGAAGUUUGGACUGGGCUGAGCUCAACACAGCGUGGCAAAGUGGCUGUGGCUAGACUGCUUCUCUGGAUUCCUCGUCACUCAGCAGGGCAUCUCUGAGAGAAAUGCC', 'self-cleavage', 0.04),
  ('UACGUAGGUGGUUUUCCCCUGAUAGUGCUAAAGGGGCCUGGAAGUUUGGACUGGGCAGAGCUCAACACAGCGUGGCAAAGUGGCUGUGGCUAGACUGCCUCUCUGGAUUCCUCGUCACUCAACAGGGCAUCUCUGAGAGAAAUGCC', 'self-cleavage', 2.13),
  ('UACGUAGGUGGUUUUCCCCUGAUAGUGCUAAGGGGGCCUGGAAGUUUGGACUGGGCAGAGCUCAACACAGCGUGGCAAUGUGGCUGUGGCUAGACUGCCUCUCUGGAUUCCUCGUCACCCAGCAGGGCAUCUCUGAGAGAAAUGCC', 'self-cleavage', 2.41),
  ('UACGUAGGUGGUUUUCCCCUGAUAGUGCUAAGGGGGCCUGGAAGUUUGGACUGGGCAGAGCUCAACACAGCGUGGCAAAGUGGCUGUGGCUUGACUGCCUCUCUGGAUUCCUCGUCACUCAGCAGGGCAUCUCUGAGUGAAAUGCC', 'self-cleavage', 0.53),
  ('UACGUAGGUGGUUUUCCCCUGACAGUGCUAAGGGGGCCUGGAAGUUUGGACUGGCCAGAGCUCAACACAGCGUGGCAAAGUGGCUGUGGCUAGACUGCCUCUCUGGAUUCCUCGUCACUCAGCAGGGCAUCUCUGAGAGAAAUGCC', 'self-cleavage', 0.06),
  ('UACGUAGGUGGUUUUCCCCAGAUAGUGCUAAGGGCGCCUGGAAGUUUGGACUGGGCAGAGCUCAACACAGCGUGGCAAAGUGGCUGUGGCUAGACUGCCUCUCUGGAUUCCUCGUCACUCAGCAGGGCAUCUCUGAGAGAAAUGCC', 'self-cleavage', 1.12),
  ('UACGUAGGUGGAUUUCCCCUGAUAGUGCUAAGGGGGCCUGGAAGUUUGGACUGGGCAGAGCUCAACACAGCGUGGCAAAGUGGCUGUGGCUAGACUGCCUCUCUGGAUACCUCGUCACUCAGCAGGGCAUCUCUGAGAGAAAUGCC', 'self-cleavage', 0.65),
  ('UACGUAGGUGGUUUUCCCCUGAUAGUGCUAAGGGGGCCUGGAAGUUUGGACUGGGCAGAGCUCAACACAGCGUGGCAAAGUGGCUGUGACUAGGCUGCCUCUCUGGAUUCCUCGUCACUCAGCAGGGCAUCUCUGAGAGAAAUGCC', 'self-cleavage', 0.07),
  ('UACGUAGGUGGUUUUCCCCUGAUAGUGCUAGGGGGGCCUGGAAGUUUGGACUGGGCAGAGCUCAACACAGCGUGGCAAGGUGGCUGUGGCUAGACUGCCUCUCUGGAUUCCUCGUCACUCAGCAGGGCAUCUCUGAGAGAAAUGCC', 'self-cleavage', 1.23),
  ('UACGUAGGUGGUUUUCCCCUGAUAGUGCCAAGGGGGCCUGGAAGUUUGGACUGGGCAGAGCUCAACACAGCGCGGCAAAGUGGCUGUGGCUAGACUGCCUCUCUGGAUUCCUCGUCACUCAGCAGGGCAUCUCUGAGAGAAAUGCC', 'self-cleavage', 1.3),
  ('UACGUAGGUGGUUUUCCCCUGAUAGUGCUAAGGGGGCCUGGAAGGUUGGACUGGGCUGAGCUCAACACAGCGUGGCAAAGUGGCUGUGGCUAGACUGCCUCUCUGGAUUCCUCGUCACUCAGCAGGGCAUCUCUGAGAGAAAUGCC', 'self-cleavage', 0.18),
  ('UACGUAGGUGGUUUUCCCCUGAUAGUGCUAAGGGGGCCUGGAAGUUUGGACUGGGCAGAGCUCAACACAGCGUGGCAAAGUGGCUGCGGCUAGACUGACUCUCUGGAUUCCUCGUCACUCAGCAGGGCAUCUCUGAGAGAAAUGCC', 'self-cleavage', 0.09),
  ('UACGUAGGUGGUUUUCCCCUGAUAGUGCUGAGGGGGCCUGGAAGUUUGGACUGGGCAGAGCUCUACACAGCGUGGCAAAGUGGCUGUGGCUAGACUGCCUCUCUGGAUUCCUCGUCACUCAGCAGGGCAUCUCUGAGAGAAAUGCC', 'self-cleavage', 0.65),
  ('UACGUAGGUGGUUUUCCCCUGAUAGUGCUAAGGGGGCCUGGUAGUUUGGACUGGGCUGAGCUCAACACAGCGUGGCAAAGUGGCUGUGGCUAGACUGCCUCUCUGGAUUCCUCGUCACUCAGCAGGGCAUCUCUGAGAGAAAUGCC', 'self-cleavage', 0.04),
  ('UACGUAGGUGGUUUUCCCCUGAUAGUGCUAAGGGGUCCUGGAAGUUUGGACUGGGCAGAGCUCAACACAGCGUGGCAAAGUGGCUGUGGCUAGACUGCCUCUCCGGAUUCCUCGUCACUCAGCAGGGCAUCUCUGAGAGAAAUGCC', 'self-cleavage', 2.32),
  ('UACGUAGGUGGUUUUCCCCUGAUAGUGCUAAGGGGGCCUGGAAGUUUGGACUGGGCAGAGCUCAACACAGCGUGGCAAAGUGGCAGUGGCUAGACUGCCUCUCUGGAUUCCUCGUCACUCAGCAGGGCAUCUCUGUGAGAAAUGCC', 'self-cleavage', 0.19),
  ('UACGUAAGUGGUUUUCCCCUGAUAGUGCUAAGGGGGCCUGGAAGUUUGGACUGGGCAGAGCUCAACACAGCGUGGCAAAGUGGCUGUGGCCAGACUGCCUCUCUGGAUUCCUCGUCACUCAGCAGGGCAUCUCUGAGAGAAAUGCC', 'self-cleavage', 0.34),
  ('UACGUAGGUGGUUUUCCCCUGAUAGUGCUAAGGGGGCCUGGAAAUUUGGACUGGGCAGAGCUCAACACAGCGUGGCAAAGUGGCUGUGGCUAGACCGCCUCUCUGGAUUCCUCGUCACUCAGCAGGGCAUCUCUGAGAGAAAUGCC', 'self-cleavage', 0.13),
  ('UACGUAGGUGGUUUUCCCUUGAUAGUGCUAAGGGGGCCUGGAAGUUUGGACUGGGCAGAGCUCAACACAGCGUGGCAAAGUGGCUGUGGCUAGACUGCCUCUCUGGAUUCCUCGCCACUCAGCAGGGCAUCUCUGAGAGAAAUGCC', 'self-cleavage', 1.79),
  ('UACGUAGGUGGUUUUCCCCUGAUAGUGCUAAGGGGGCCUGGAAGUUUGGACCGGGCAGAGCUCAACACAGCGUGGCAAAGGGGCUGUGGCUAGACUGCCUCUCUGGAUUCCUCGUCACUCAGCAGGGCAUCUCUGAGAGAAAUGCC', 'self-cleavage', 1.31),
  ('UACGUAGGUGGUUUUCCCCUGAUAGUGCUAAGGGGGCCUGGAAGUUUGGACUGGGCAGAGCUCAACACAGCGUGGCAAAGUGGCUGUGGGUAGACUGCCUCUCUGGAUCCCUCGUCACUCAGCAGGGCAUCUCUGAGAGAAAUGCC', 'self-cleavage', 0.07),
  ('UACGUAGGUGGUUUUCCCCUGAUAGUGCUAAGGGGGCCUGGAAGUUUGGACUGGGCAGAGCUCAACACAGCGUGGCAAAGUAGCUGUGGCUAGACUGCCUCUCUGGAUUCCUCGUCACUCAGCAGUGCAUCUCUGAGAGAAAUGCC', 'self-cleavage', 2.04);
